Test system: in vitro bovine BBB cell-based model
Assay: In vitro bovine BBB cell-based model transport assay
Conditions: 200 μM peptide in Ringer-HEPES, 2 h, 37 °C; quantified by MALDI-TOF MS with heavy internal standard; mean ± SD, n = 3
Numbered stars: 1 amine (or outer) side, 2 acyl side, 3 side chain; on linkers, the order of the positions; unused ones are H or OH. Square brackets hold non-standard residues; d marks the D form. Peptide text beside a SMILES is read from it. X1 = O=C([C@H]1[C@@H](c2ccccc2)CCN1[*:1])[*:2]; X2 = O=C([C@@H]1[C@H](c2ccccc2)CCN1[*:1])[*:2]; dAla(4-thiazolyl) = N[C@H](Cc1cscn1)C(=O)O; Tic(7-OH) = O=C(O)[C@@H]1Cc2ccc(O)cc2CN1; Phe(4-NH2) = Nc1ccc(C[C@H](N)C(=O)O)cc1; Phe(4-F) = N[C@@H](Cc1ccc(F)cc1)C(=O)O; hCha = N[C@@H](CCC1CCCCC1)C(=O)O
parameter.measured: Transport (%) MALDI-TOF MS
Enter your answer as a number in %; do not include the unit.

Ask | Reported Transport (%) MALDI-TOF MS for CC[C@@H](C)[C@@H](NC(=O)[C@@H](Cc1ccc(O)cc1)NC(=O)[C@H]1CCCCN1C(=O)[C@@H](CCCNC(=N)N)NC(=O)[C@@H](Cc1c[nH]cn1)NC(C)=O)C(=O)N[C@H](C)C(=O)N[C@H](Cc1c[nH]cn1)C(N)=O [Peptide 8D, Ac-hrxyiah-NH2] : what is it?
Reply | 7.5

Ask | Returns the measured Transport (%) MALDI-TOF MS for the input compound. Input: CC[C@H](C)[C@H](NC(=O)[C@H](C)NC(=O)[C@H](Cc1c[nH]cn1)NC(C)=O)C(=O)N[C@@H](Cc1ccc(F)cc1)C(=O)N1CCC[C@H]1C(=O)N[C@@H](CCCNC(=N)N)C(=O)N[C@@H](Cc1c[nH]cn1)C(N)=O [Peptide 5L, Ac-HAIxPRH-NH2] (Ac-HAI[Phe(4-F)]PRH-NH2)
Reply | 3.1

Ask | Fill blank: measured Transport (%) MALDI-TOF MS of the compound CC[C@@H](C)[C@@H](NC(=O)[C@@H](Cc1ccc(O)cc1)NC(=O)[C@@H]1[C@H](c2ccccc2)CCN1C(=O)[C@@H](CCCNC(=N)N)NC(=O)[C@@H](Cc1c[nH]cn1)NC(C)=O)C(=O)N[C@H](C)C(=O)N[C@H](Cc1c[nH]cn1)C(N)=O [7+D, Ac-hrxyiah-NH2] (Ac-[dH][dR][X2][dY][dI][dA][dH]-NH2) is ____.
Reply | 7

Ask | Look up Transport (%) MALDI-TOF MS for this compound: CC[C@H](C)[C@H](NC(=O)[C@H](C)NC(=O)[C@H](Cc1c[nH]cn1)NC(C)=O)C(=O)N1Cc2cc(O)ccc2C[C@H]1C(=O)N1CCC[C@H]1C(=O)N[C@@H](CCCNC(=N)N)C(=O)N[C@@H](Cc1c[nH]cn1)C(N)=O [Peptide 3L, Ac-HAIxPRH-NH2] (Ac-HAI[Tic(7-OH)]PRH-NH2)
Reply | 2.5

Ask | Please give the measured Transport (%) MALDI-TOF MS for this compound: CC[C@@H](C)[C@@H](NC(=O)[C@@H](Cc1ccc(O)cc1)NC(=O)[C@H]1CCCN1C(=O)[C@@H](CCCNC(=N)N)NC(=O)[C@@H](Cc1cscn1)NC(C)=O)C(=O)N[C@H](C)C(=O)N[C@H](Cc1c[nH]cn1)C(N)=O [Peptide 9D, Ac-xrpyiah-NH2] (Ac-[dAla(4-thiazolyl)][dR][dP][dY][dI][dA][dH]-NH2)
Reply | 2.9

Ask | Requested read-out: Transport (%) MALDI-TOF MS. Entry: CC[C@@H](C)[C@@H](NC(=O)[C@@H](Cc1ccc(O)cc1)NC(=O)[C@H]1CCCN1C(=O)[C@@H](CCCNC(=N)N)NC(=O)[C@@H](Cc1c[nH]cn1)NC(C)=O)C(=O)N[C@H](C)C(=O)N[C@H](Cc1c[nH]cn1)C(N)=O [Peptide 6D, Ac-hrpyiah-NH2]
Reply | 3.1

Ask | Query: Transport (%) MALDI-TOF MS; subject: CC[C@H](C)[C@H](NC(=O)[C@H](C)NC(=O)[C@H](Cc1c[nH]cn1)NC(C)=O)C(=O)N[C@@H](Cc1ccc(O)cc1)C(=O)N1CCC[C@H]1C(=O)N[C@@H](CCCNC(=N)N)C(=O)N[C@@H](Cc1c[nH]cn1)C(N)=O [Peptide 1L, Ac-HAIYPRH-NH2]
Reply | 3.8

Ask | # get_value(readout='Transport (%) MALDI-TOF MS', item= CC(=O)N[C@@H](Cc1c[nH]cn1)C(=O)N[C@@H](C)C(=O)N[C@@H](CCC1CCCCC1)C(=O)N[C@@H](Cc1ccc(O)cc1)C(=O)N1CCC[C@H]1C(=O)N[C@@H](CCCNC(=N)N)C(=O)N[C@@H](Cc1c[nH]cn1)C(N)=O [Peptide 2L, Ac-HAxYPRH-NH2] (Ac-HA[hCha]YPRH-NH2) )
Reply | 3.4

Ask | Could you share which Transport (%) MALDI-TOF MS value was measured for CC[C@@H](C)[C@@H](NC(=O)[C@@H](Cc1ccc(O)cc1)NC(=O)[C@H]1[C@@H](c2ccccc2)CCN1C(=O)[C@@H](CCCNC(=N)N)NC(=O)[C@@H](Cc1c[nH]cn1)NC(C)=O)C(=O)N[C@H](C)C(=O)N[C@H](Cc1c[nH]cn1)C(N)=O [Peptide 7-D, Ac-hrxyiah-NH2] (Ac-[dH][dR][X1][dY][dI][dA][dH]-NH2) ?
Reply | 7

Ask | State the recorded Transport (%) MALDI-TOF MS for this entry: CC[C@H](C)[C@H](NC(=O)[C@H](C)NC(=O)[C@H](Cc1c[nH]cn1)NC(C)=O)C(=O)N[C@@H](Cc1ccc(N)cc1)C(=O)N1CCC[C@H]1C(=O)N[C@@H](CCCNC(=N)N)C(=O)N[C@@H](Cc1c[nH]cn1)C(N)=O [Peptide 4L, Ac-HAIxPRH-NH2] (Ac-HAI[Phe(4-NH2)]PRH-NH2)
Reply | 2.1

---

Experiment: In vitro bovine BBB cell-based model transport assay
Details: bovine, Papp RP-HPLC-PDA, 200 μM peptide in Ringer-HEPES, 2 h, 37 °C; quantified by RP-HPLC-PDA (220 nm); mean ± SD, n = 3
Numbered stars: 1 amine (or outer) side, 2 acyl side, 3 side chain; on linkers, the order of the positions; unused ones are H or OH. Square brackets hold non-standard residues; d marks the D form. Peptide text beside a SMILES is read from it. X2 = O=C([C@@H]1[C@H](c2ccccc2)CCN1[*:1])[*:2]; Tic(7-OH) = O=C(O)[C@@H]1Cc2ccc(O)cc2CN1
parameter.measured: Papp at 2 h, 200 μM (×10⁻⁶ cm/s)
The figure you give is taken to be in ×10⁻⁶ cm/s; do not add the unit.

Ask | # lookup: Papp at 2 h, 200 μM of CC[C@@H](C)[C@@H](NC(=O)[C@@H](Cc1ccc(O)cc1)NC(=O)[C@@H]1[C@H](c2ccccc2)CCN1C(=O)[C@@H](CCCNC(=N)N)NC(=O)[C@@H](Cc1c[nH]cn1)NC(C)=O)C(=O)N[C@H](C)C(=O)N[C@H](Cc1c[nH]cn1)C(N)=O [7+D, Ac-hrxyiah-NH2] (Ac-[dH][dR][X2][dY][dI][dA][dH]-NH2)
Reply | 5.7

Ask | What Papp at 2 h, 200 μM value was documented for this compound, CC[C@H](C)[C@H](NC(=O)[C@H](C)NC(=O)[C@H](Cc1c[nH]cn1)NC(C)=O)C(=O)N1Cc2cc(O)ccc2C[C@H]1C(=O)N1CCC[C@H]1C(=O)N[C@@H](CCCNC(=N)N)C(=O)N[C@@H](Cc1c[nH]cn1)C(N)=O [Peptide 3L, Ac-HAIxPRH-NH2] (Ac-HAI[Tic(7-OH)]PRH-NH2) ?
Reply | 1.7

Ask | Name the reported Papp at 2 h, 200 μM value associated with the compound CC[C@@H](C)[C@@H](NC(=O)[C@@H](Cc1ccc(O)cc1)NC(=O)[C@H]1CCCCN1C(=O)[C@@H](CCCNC(=N)N)NC(=O)[C@@H](Cc1c[nH]cn1)NC(C)=O)C(=O)N[C@H](C)C(=O)N[C@H](Cc1c[nH]cn1)C(N)=O [Peptide 8D, Ac-hrxyiah-NH2]
Reply | 6.1
